Origin of measurements: patent EP0185259A2

- system-under-test: Phosphodiesterase aus B16 Melanomgewebe von Mäusen
- protocol-details: PDE inhibition (PDE assay), enzyme from B16 melanoma tissue, 3H-cAMP substrate
- setup-conditions: PDE from mouse B16 melanoma tissue; 1 µmol/l 3H-cAMP as substrate; linear regression; read-out: PDE-Hemmung (IC50 in µmol/l) B16-Tumorzellen
Rule: IC50 below 3 µmol/L gives Y. Equal to or above 3 µmol/L gives N.

>  <compound>
CN(C)c1nc2nc(N3CCNCC3)nc(N3CCCC3)c2nc1-c1ccccc1 [D]

>  <system-under-test>
Phosphodiesterase aus B16 Melanomgewebe von Mäusen

>  <classification>
Y

$$$$
>  <compound>
[O-][S+]1CCN(c2nc3nc(N4CCNCC4)nc(N4CCOCC4)c3nc2-c2ccccc2)CC1 [B]

>  <system-under-test>
Phosphodiesterase aus B16 Melanomgewebe von Mäusen

>  <classification>
N

$$$$
>  <compound>
c1ccc(CNc2nc3nc(N4CCNCC4)nc(N4CCSCC4)c3nc2-c2ccccc2)cc1 [C]

>  <system-under-test>
Phosphodiesterase aus B16 Melanomgewebe von Mäusen

>  <classification>
Y

$$$$
>  <compound>
c1ccc(-c2nc3c(N4CCOCC4)nc(N4CCNCC4)nc3nc2N2CCOCC2)cc1 [A]

>  <system-under-test>
Phosphodiesterase aus B16 Melanomgewebe von Mäusen

>  <classification>
N

$$$$

Q) Report whether reported IC50 is lower than 3 µmol/L (strictly) for CN(CCO)c1nc(N2CCNCC2)nc2nc(NCc3ccccc3)cnc12 [E]
A) N
